These data points were gathered from PubChem BioAssay.

test: reversal of MRP1-mediated doxorubicin resistance, pilot screen, H69AR cells, doxorubicin co-treatment (AID 601); conditions: H69AR cells + 2 uM doxorubicin, CellTiter-Glo, 72 h; at 10 µM; stronger effect = higher value
Overview of reported differential viability (reversal) across a group of compounds:
Write down the numeric answer in % and omit the unit.

The following compounds have reported results that may help.
COMPOUND: O=C1c2ccccc2C(=O)N1CCCCN1CCN(CCCCN2C(=O)c3ccccc3C2=O)CC1
differential viability (reversal) [%]: 12.7
//
COMPOUND: Cc1ccc(S(=O)(=O)NC(C)C(=O)Nc2ccc(C(N)=O)cc2)cc1 (stereo not given)
differential viability (reversal) [%]: 4.08
//
COMPOUND: CC(=O)NC(Cc1ccc(C)cc1)C(=O)NC1CCN(C(=O)c2cnccn2)CC1 (stereo not given)
differential viability (reversal) [%]: 2.21
//
COMPOUND: CCOc1nc(-c2ccccc2)ccc1-c1noc(-c2ccc(OC)c(OC)c2)n1
differential viability (reversal) [%]: -4.04

[in] May I ask what differential viability (reversal) has been recorded for `CC(=O)SCC(=O)N=c1sc2cc(F)ccc2n1C` ?
[out] -2.64

====

test: 384-well plate pilot, post-Golgi transport modulator project, inhibition of yeast transport mutant growth (AID 636); settings: absorbance 615 nm, about 18 h, stronger effect = higher value
Activity calls are given as the source filed them. Cut-off read from the data, not from the text of the source: active = inhibition above about 31%; inactive = the rest.
READOUT_NAME: inhibition

COMPOUND: Cc1ccc(Nc2nc(Oc3ccc(=O)[nH]n3)nc(N(C)C)n2)cc1
ENDPOINT_VALUE: -3.7% (inactive)

COMPOUND: O=C1c2oc3ccccc3c(=O)c2C(c2cccnc2)N1Cc1ccco1 (stereo not drawn)
ENDPOINT_VALUE: -0.96% (inactive)

COMPOUND: CCOCCCNC(=O)C1CCN(S(=O)(=O)c2c(C)noc2/C=C\c2ccc(OC)cc2)CC1
ENDPOINT_VALUE: 4.13% (inactive)

COMPOUND: CCOC(=O)C1/C(=N\O)CC(C)(O)C(C(=O)OCC)C1c1ccc(N(C)C)cc1 (stereo not drawn)
ENDPOINT_VALUE: 1.64% (inactive)

COMPOUND: COc1ccc(C(C)NC(=O)c2ccoc2C)cc1OC (stereo not drawn)
ENDPOINT_VALUE: -6.16% (inactive)

COMPOUND: Cc1ccc(-c2nc(N)n(C(=O)c3cccnc3)n2)cc1
ENDPOINT_VALUE: -3.08% (inactive)

[in] May I ask what inhibition has been recorded for `COc1ccc2c3c(c(=O)oc2c1OCC(N)=O)CCCC3` ?
[out] -5.48% (inactive)

[in] Now this one: `COCC(=O)N(Cc1ccccc1)c1ccccn1`
[out] -5.32% (inactive)

[in] Now this one: COc1ccc(NC(=O)CSc2nnc(-c3ccncc3)n2CC2CCCO2)c(OC)c1 (stereo not drawn)
[out] -6.36% (inactive)

[in] Now this one: `O=C(Cn1c(NCCO)nc2ccccc21)c1ccccc1`
[out] -2.16% (inactive)

[in] Now this one: `O=C(CSc1nnc(COc2ccc(Cl)cc2)o1)OC1CCCCC1`
[out] 4.66% (inactive)

[in] Now this one: CCOC(=O)C1=C(C)NC(C)=C(C(=O)OC)C1c1cccc([N+](=O)[O-])c1 (stereo not drawn)
[out] 5.58% (inactive)

[in] Now this one: `CCCCNC(=O)c1nnn(-c2ccccc2)c1N`
[out] 4.03% (inactive)

[in] Now this one: `CCOC(=O)c1c(C)oc2ccc(O)c(CN(C)C)c12`
[out] -6.1% (inactive)

[in] Now this one: `COc1cc(OC)cc(-c2nc3nc(C)c(CCC(=O)O)c(C)n3n2)c1`
[out] -4.08% (inactive)

[in] Now this one: OCC(O)CN1CCN(c2ccccc2)CC1 (stereo not drawn)
[out] 1.95% (inactive)

[in] Now this one: `O=C(NC1CC1)c1ccc(S(=O)(=O)NCC2CCCCC2)cc1`
[out] -6.85% (inactive)

[in] Now this one: `C=C(C)COc1ccc(-c2nc(N)ncc2-c2ccc(OC)cc2)c(O)c1`
[out] -1.56% (inactive)

====

assay: reversal of MRP1-mediated doxorubicin resistance, pilot screen, H69AR cells, doxorubicin co-treatment (AID 601); conditions: H69AR cells, CellTiter-Glo, 72 h; compound alone cytotoxicity; at 10 µM
So basically, if viability comes in under 90% it's MET, and if it's 90% or more it's NOT MET.

Solved entries (count: 3):
MOLECULE: CCOc1cccc(Oc2ccc(C(F)(F)F)cn2)c1
ASSIGNED_CLASS: NOT MET
//
MOLECULE: CCC(CC)n1[nH]c(=O)c2c(C)cc(C)nc21
ASSIGNED_CLASS: NOT MET
//
MOLECULE: COC(=O)C1=CN(C)C=C(C(=O)OC)C1c1ccc(O)c(OC)c1
ASSIGNED_CLASS: NOT MET

[in] Does the reported viability of the following molecule sit strictly below 90%? `Cc1ccc(Cn2c(SCC(N)=O)nc3c2c(=O)n(C)c(=O)n3C)cc1`
[out] MET

[in] Now this one: `CCCNS(=O)(=O)c1ccc(OCC(=O)Nc2ccccc2F)cc1`
[out] MET

[in] Now this one: `COc1ccccc1NC(=O)NCc1ccc2c(c1)OCO2`
[out] NOT MET

[in] Now this one: `Cc1occc1C(=O)Nc1nnc(C2CCCCC2)s1`
[out] NOT MET

[in] Now this one: `NC(=O)CSCc1ccc(Br)cc1`
[out] NOT MET

[in] Now this one: CCCCCCCCCCCCCCCC(O)C(N)CO (centres undefined)
[out] MET

[in] Now this one: Cc1cc(NC(=O)CCC(=O)N(CC2CCCO2)C(C(=O)NC2CCCC2)c2ccccc2C)no1 (centres undefined)
[out] NOT MET

[in] Now this one: `Cc1ccc(-c2nn3c(C)nnc3s2)cc1N`
[out] NOT MET

[in] Now this one: `N#C/C(=C\c1ccc(O)c(O)c1)C(=O)NCCCc1ccccc1`
[out] MET

[in] Now this one: `CNCCCC12CCC(c3ccccc31)c1ccccc12`
[out] MET

[in] Now this one: `Cc1csc(SCCn2c(N3CCCC3)nc3c2c(=O)[nH]c(=O)n3C)n1`
[out] NOT MET

[in] Now this one: `COCCNC(=O)c1snc2ccc(Cl)cc12`
[out] NOT MET

[in] Now this one: `CCCN(CCO)Cc1cccc(Br)c1`
[out] NOT MET

[in] Now this one: `O=C(O)/C=C/c1ccc(O)c(O)c1`
[out] NOT MET

[in] Now this one: `O=S(=O)(Cc1ccccc1)N1CCN(Cc2ccccc2)CC1`
[out] NOT MET

[in] Now this one: `CCCC(CCC)n1[nH]c(=O)c2c(C)cc(C)nc21`
[out] NOT MET

[in] Now this one: O=C1CC(c2ccsc2)c2cc3c(cc2N1)OCCO3 (centres undefined)
[out] MET

[in] Now this one: `Cc1cccc(N(CC(=O)Nc2ccc(CC#N)cc2)S(C)(=O)=O)c1`
[out] NOT MET

[in] Now this one: `COc1cccc(Oc2ccc(N)cc2)c1`
[out] MET

[in] Now this one: O=C1CC(Cc2ccccc2)C(=O)N1CCc1ccc2c(c1)OCO2 (centres undefined)
[out] NOT MET

[in] Now this one: `Cc1ccccc1-n1nnc2c(=O)oc3ccccc3c21`
[out] MET

[in] Now this one: Cc1nccn1CCCN1C(=O)OC2(CCCCC2)C1(C)O (centres undefined)
[out] NOT MET

[in] Now this one: CN(C)CC(O)COc1ccc(-c2ccc(C#N)cc2)cc1 (centres undefined)
[out] NOT MET

[in] Now this one: `CS(=O)(=O)N(CC(=O)NCCSCc1cccc(Cl)c1)c1ccc2c(c1)OCO2`
[out] NOT MET

====

assay: reversal of MRP1-mediated doxorubicin resistance, pilot screen, H69AR cells, doxorubicin co-treatment (AID 601); details: H69AR cells + 2 uM doxorubicin, CellTiter-Glo, 72 h; at 10 µM; stronger effect = higher value
So basically, if differential viability (reversal) comes in under 3% it's met, and if it's 3% or more it's not met.

MOLECULE: Cc1cc(NC(=O)CSc2nc(C3CCCCC3)nc3ccccc23)no1
ASSIGNED_CLASS: not met
//
MOLECULE: O=C(NCCN1CCOCC1)C1CCC(=O)N1Cc1ccccc1Cl (stereo unspecified)
ASSIGNED_CLASS: not met
//
MOLECULE: N#Cc1ccc(CSc2nnc(-c3ccccn3)n2-c2ccccc2)cc1
ASSIGNED_CLASS: not met

[in] Does the reported differential viability (reversal) of the following molecule sit strictly below 3%? Cc1ccc(S(=O)(=O)CC2CSc3nnc(C)c(=O)n32)cc1 (stereo unspecified)
[out] met
